target: furin, P09958; test: furin cleavage Z-score vs untreated control; higher = more cleavage, active = 3.5 or more, inactive = 1 or less, 8 variable residues between constant flanks; conditions: 30 min;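 note: purified furin at 1:10 enzyme:substrate in 50 mM HEPES pH 7.5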
Sequence (P09958 whole entry): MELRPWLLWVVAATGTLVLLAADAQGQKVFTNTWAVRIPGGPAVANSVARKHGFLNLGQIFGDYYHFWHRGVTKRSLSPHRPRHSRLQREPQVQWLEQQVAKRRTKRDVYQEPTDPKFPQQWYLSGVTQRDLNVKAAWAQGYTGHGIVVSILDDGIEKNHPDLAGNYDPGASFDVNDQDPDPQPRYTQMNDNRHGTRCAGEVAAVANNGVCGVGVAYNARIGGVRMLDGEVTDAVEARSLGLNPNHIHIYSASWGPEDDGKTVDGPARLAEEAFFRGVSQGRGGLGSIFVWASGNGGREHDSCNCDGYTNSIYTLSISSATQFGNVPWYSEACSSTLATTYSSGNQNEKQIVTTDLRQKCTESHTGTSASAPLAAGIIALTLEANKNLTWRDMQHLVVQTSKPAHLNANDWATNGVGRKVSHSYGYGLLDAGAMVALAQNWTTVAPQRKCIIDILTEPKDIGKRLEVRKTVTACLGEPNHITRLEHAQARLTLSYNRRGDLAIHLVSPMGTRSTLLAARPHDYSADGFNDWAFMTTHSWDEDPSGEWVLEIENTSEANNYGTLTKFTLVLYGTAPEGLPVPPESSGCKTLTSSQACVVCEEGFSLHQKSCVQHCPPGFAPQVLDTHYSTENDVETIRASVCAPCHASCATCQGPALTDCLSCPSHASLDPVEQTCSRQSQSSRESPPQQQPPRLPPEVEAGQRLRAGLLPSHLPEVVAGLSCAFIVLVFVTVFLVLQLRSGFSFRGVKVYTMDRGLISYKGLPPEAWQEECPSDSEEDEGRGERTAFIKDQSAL
Some of the results follow. How many sequences the whole screen found active is unknown.
# Lookup of reported furin cleavage Z-score keyed by entry

See these solved cases before continuing.
1) CAEVVISTWVAGNASASA [HC125]: -1.26 (inactive)
2) CATFTIETITAGNASASA [HC895]: -0.39 (inactive)
3) CARVKKSVEVAGNASASA [FS-3118]: 8.17 (active)
4) CAPTSGDVVVAGNASASA [HC874]: -0.497 (inactive)
5) CAIRARVARAAGNASASA [FS-1348]: 7.2 (active)

Challenge: Please give the measured furin cleavage Z-score for this sequence: CAPTLWARMIAGNASASA [HC1579]
Response given: 0.0409 (inactive)

Challenge: One more sequence: CAPSNRSARAAGNASASA [FS-1245]
Response given: 9 (active)
